Would you kindly list remaining at 4 h, 25 µM for each of these molecules?
# ASSAY_METHOD_TEXT: Drug metabolism in human HaCaT cells assessed as residual substrate levels at 25 uM up to 240 mins by HPLC-UV analysis
# Assay type: ADME, cell-based
# CONDITION_SUMMARY: read-out: Stability
Numeric only. Scale: %

Qu. Which remaining at 4 h, 25 µM is reported for this molecule? `CC(C)=CCC/C(C)=C/C(=O)OCC(=O)NCc1ccc(O)c(O)c1`
Ans. 104

Qu. Which remaining at 4 h, 25 µM is reported for this molecule? `CCCCCCCCCCCC(=O)OCC(=O)NCc1cc(OC)c(O)cc1I`
Ans. 98.6

Qu. Which remaining at 4 h, 25 µM is reported for this molecule? `CCCCC/C=C\C/C=C\C/C=C\C/C=C\CCCC(=O)OCC(=O)NCc1ccc(O)c(OC)c1`
Ans. 96.9

Qu. Which remaining at 4 h, 25 µM is reported for this molecule? `CCCCCCCCCCCCCCC(=O)OCC(=O)NCc1ccc(O)c(OC)c1`
Ans. 83.8

Qu. Which remaining at 4 h, 25 µM is reported for this molecule? `COc1cc(CNC(=O)COC(=O)CC/C(C)=C/CC/C(C)=C/CC/C=C(\C)CC/C=C(\C)CCC=C(C)C)ccc1O`
Ans. 98.2

====

# ASSAY_METHOD_TEXT: Drug metabolism in human liver S9 fraction assessed as residual substrate levels at 50 uM up to 60 mins by HPLC-UV analysis
# Format: ADME, subcellular
# CONDITION_SUMMARY: read-out: Stability
Please respond with Fulfilled when measured remaining at 1 h, 50 µM is strictly beneath 20%, and with Not fulfilled in all other cases.

Qu. Hello, I'm reviewing records and need to know if remaining at 1 h, 50 µM of `CCCCCCCC(=O)OCC(=O)NCc1cc(OC)c(O)cc1I` is below 20%. Could you check?
Ans. Fulfilled

Qu. Hello, I'm reviewing records and need to know if remaining at 1 h, 50 µM of `COc1cc(CNC(=O)CCCC/C=C/C(C)C)ccc1O` is below 20%. Could you check?
Ans. Not fulfilled

Qu. Hello, I'm reviewing records and need to know if remaining at 1 h, 50 µM of `CCCCCCCCCCCCCCC(=O)OCC(=O)NCc1ccc(O)c(OC)c1` is below 20%. Could you check?
Ans. Not fulfilled

Qu. Hello, I'm reviewing records and need to know if remaining at 1 h, 50 µM of `CC(C)=CCC/C(C)=C/C(=O)OCC(=O)NCc1cc(O)c(O)cc1I` is below 20%. Could you check?
Ans. Fulfilled

Qu. Hello, I'm reviewing records and need to know if remaining at 1 h, 50 µM of `COc1cc(CNC(=O)COC(=O)CC/C(C)=C/CC/C(C)=C/CC/C=C(\C)CC/C=C(\C)CCC=C(C)C)ccc1O` is below 20%. Could you check?
Ans. Not fulfilled

Qu. Hello, I'm reviewing records and need to know if remaining at 1 h, 50 µM of `COc1cc(CNC(=O)COC(=O)/C=C(\C)CCC=C(C)C)c(I)cc1O` is below 20%. Could you check?
Ans. Not fulfilled

====

Would you kindly list inhibition for each of these molecules?
# STUDY_TARGET: Transient receptor potential cation channel subfamily V member 1 (Homo sapiens, UniProt Q8NER1)
# Sequence (Q8NER1 whole entry): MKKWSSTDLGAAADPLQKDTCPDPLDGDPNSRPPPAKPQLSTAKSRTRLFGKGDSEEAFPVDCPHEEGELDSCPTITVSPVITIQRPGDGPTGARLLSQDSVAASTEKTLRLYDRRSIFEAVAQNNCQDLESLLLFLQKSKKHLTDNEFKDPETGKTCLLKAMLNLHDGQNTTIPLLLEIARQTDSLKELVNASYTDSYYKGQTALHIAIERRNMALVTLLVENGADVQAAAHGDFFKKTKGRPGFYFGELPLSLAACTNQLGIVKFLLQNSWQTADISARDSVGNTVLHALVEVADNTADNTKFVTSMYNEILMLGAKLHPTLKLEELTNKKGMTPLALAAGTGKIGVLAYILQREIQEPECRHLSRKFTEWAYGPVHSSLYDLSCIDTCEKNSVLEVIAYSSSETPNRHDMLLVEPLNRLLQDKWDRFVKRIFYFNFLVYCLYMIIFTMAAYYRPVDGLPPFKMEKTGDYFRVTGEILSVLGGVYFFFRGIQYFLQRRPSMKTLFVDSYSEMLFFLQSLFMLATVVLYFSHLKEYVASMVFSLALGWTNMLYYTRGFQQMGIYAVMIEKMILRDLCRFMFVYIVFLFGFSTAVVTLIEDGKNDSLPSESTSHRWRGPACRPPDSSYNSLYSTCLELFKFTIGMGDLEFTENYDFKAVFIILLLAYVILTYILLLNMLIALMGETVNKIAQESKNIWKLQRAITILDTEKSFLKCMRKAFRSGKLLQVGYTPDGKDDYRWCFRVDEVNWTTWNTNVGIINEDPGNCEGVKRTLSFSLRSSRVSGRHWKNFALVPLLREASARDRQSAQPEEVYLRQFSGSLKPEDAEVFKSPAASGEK
# ASSAY_METHOD_TEXT: Antagonist activity at TRPV1 (unknown origin) expressed in human SH-SY5Y cells assessed as inhibition of capsaicin-induced calcium influx at 1 uM after 25 mins by Fluo-4 NW dye-based fluorescence assay relative to capsaicin
# Assay type: cell-based
Numeric only. Scale: %

Qu. Which inhibition is reported for this molecule? `CCCCCCCC/C=C\CCCCCCCC(=O)OCC(=O)NCc1cc(OC)c(O)cc1I`
Ans. 5.8

Qu. Which inhibition is reported for this molecule? `C/C=C/C=C/C(=O)OCC(=O)NCc1cc(OC)c(O)cc1I`
Ans. 3.4

Qu. Which inhibition is reported for this molecule? `CCCCCCC(=O)OCC(=O)NCc1cc(OC)c(O)cc1I`
Ans. 22.9

Qu. Which inhibition is reported for this molecule? `CCCCCCCC(=O)OCC(=O)NCc1cc(OC)c(O)cc1I`
Ans. 50.5

Qu. Which inhibition is reported for this molecule? `CCCCC/C=C\C/C=C\C/C=C\C/C=C\CCCC(=O)OCC(=O)NCc1cc(OC)c(O)cc1I`
Ans. 38.4

Qu. Which inhibition is reported for this molecule? `CCCCCCCCCCCC(=O)OCC(=O)NCc1cc(OC)c(O)cc1I`
Ans. 59.8

Qu. Which inhibition is reported for this molecule? `CC(C)=CCC/C(C)=C/CC/C(C)=C/CC/C=C(\C)CC/C=C(\C)CCC(=O)OCC(=O)NCc1cc(O)c(O)cc1I`
Ans. 12.2

Qu. Which inhibition is reported for this molecule? `CCCCC(=O)OCC(=O)NCc1cc(OC)c(O)cc1I`
Ans. 27.3

Qu. Which inhibition is reported for this molecule? `CCCCCCCCC(=O)OCC(=O)NCc1cc(OC)c(O)cc1I`
Ans. 37.8

Qu. Which inhibition is reported for this molecule? `CCCCCCCC/C=C\CCCCCCCCCCCC(=O)OCC(=O)NCc1cc(OC)c(O)cc1I`
Ans. 6.7

Qu. Which inhibition is reported for this molecule? `CCCCCCCCCCCCCCCCCC(=O)OCC(=O)NCc1cc(OC)c(O)cc1I`
Ans. 44.5

Qu. Which inhibition is reported for this molecule? `CCCCCC(=O)OCC(=O)NCc1cc(OC)c(O)cc1I`
Ans. 48.3

Qu. Which inhibition is reported for this molecule? `CCCC(=O)OCC(=O)NCc1cc(OC)c(O)cc1I`
Ans. 22.5
